assay_summary: Agonist activity at human PGI2 receptor assessed as inhibition of ADP-induced platelet aggregation
# if measured IC50 < 60 nM: t  # else: f

Dear colleague, could you confirm whether IC50 of O=C(O)COc1cccc(C[C@@H]2CCC[C@H]2c2nc(-c3ccccc3)c(-c3ccccc3)o2)c1 falls below 60 nM? Thanks.
t

Dear colleague, could you confirm whether IC50 of O=C(O)COc1cccc(Cc2ccccc2-c2nc(-c3ccccc3)c(-c3ccccc3)o2)c1 falls below 60 nM? Thanks.
f

Dear colleague, could you confirm whether IC50 of O=C(O)COc1cccc(C[C@@H]2CCCC[C@H]2c2nc(-c3ccccc3)c(-c3ccccc3)o2)c1 falls below 60 nM? Thanks.
f

Dear colleague, could you confirm whether IC50 of O=C(O)COc1cccc(CN2CCC[C@@H]2c2nc(-c3ccccc3)c(-c3ccccc3)o2)c1 falls below 60 nM? Thanks.
t

Dear colleague, could you confirm whether IC50 of O=C(O)COc1cccc(C[C@@H]2CCC[C@@H]2c2nc(-c3ccccc3)c(-c3ccccc3)o2)c1 falls below 60 nM? Thanks.
t

Dear colleague, could you confirm whether IC50 of O=C(O)COc1cccc(CN2CCC[C@H]2c2nc(-c3ccccc3)c(-c3ccccc3)o2)c1 falls below 60 nM? Thanks.
t

Dear colleague, could you confirm whether IC50 of O=C(O)COc1cccc(C[C@@H]2CCCC[C@@H]2c2nc(-c3ccccc3)c(-c3ccccc3)o2)c1 falls below 60 nM? Thanks.
f

Dear colleague, could you confirm whether IC50 of O=C(O)COc1cccc(CC2=C(c3nc(-c4ccccc4)c(-c4ccccc4)o3)CCCC2)c1 falls below 60 nM? Thanks.
f
